# Assay notes: Inhibition of MAO (unknown origin)
# Parameters: species or system Homo sapiens
Property: IC50 (nM)
Answers are plain numbers, in nM.

For record `O=C1c2ccccc2-c2cnc(-c3ccccc3)nc21` the listed IC50 is 2370

====

# Experimental target: Amine oxidase [flavin-containing] B (Homo sapiens)
# Sequence (P27338 whole entry): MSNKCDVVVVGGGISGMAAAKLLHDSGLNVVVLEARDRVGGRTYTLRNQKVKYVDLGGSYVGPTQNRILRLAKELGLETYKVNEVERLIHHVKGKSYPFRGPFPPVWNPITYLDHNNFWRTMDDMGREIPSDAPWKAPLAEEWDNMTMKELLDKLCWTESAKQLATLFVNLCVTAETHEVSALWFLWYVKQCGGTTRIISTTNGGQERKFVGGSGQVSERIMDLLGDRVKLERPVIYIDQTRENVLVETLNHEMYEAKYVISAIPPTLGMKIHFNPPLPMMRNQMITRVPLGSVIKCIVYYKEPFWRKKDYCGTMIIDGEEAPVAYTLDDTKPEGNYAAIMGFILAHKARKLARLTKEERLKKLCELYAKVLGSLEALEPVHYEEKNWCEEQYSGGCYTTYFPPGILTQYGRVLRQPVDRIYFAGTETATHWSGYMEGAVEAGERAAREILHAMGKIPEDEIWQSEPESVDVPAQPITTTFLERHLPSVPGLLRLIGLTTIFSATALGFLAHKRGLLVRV
# Assay notes: Inhibition of human MAO-B using p-tyramine as substrate incubated for 30 mins by Amplex Red reagent based fluorescence analysis
Property: pIC50
Answers are plain numbers, as −log10 of the molar value.

C#CCOc1cccc(-c2cc(/C(C)=C\c3ccccc3)nc(N)n2)c1 : 5.09
C#CCOc1cccc(-c2cc(/C=C/c3ccccc3)ncn2)c1 : 5.31
C#CCOc1ccc(-c2cc(/C=C\c3ccccc3)ncn2)cc1 : 4.96

For record `C#CCOc1ccc(-c2cc(/C(C)=C\c3ccccc3)ncn2)cc1` the listed pIC50 is 5.14
